- Target: cAMP-dependent protein kinase catalytic subunit alpha (Homo sapiens, UniProt P17612)
- Test details: Inhibition of PKAalpha assessed as decrease in NADH absorbance at 340 nm in the presence of

Compound | Target | Qualifier operator | Ki / nM
COc1ccc2c(c1)nc(-c1nonc1N)n2C1CCC1 | cAMP-dependent protein kinase catalytic subunit alpha (Homo sapiens, UniProt P17612) | = | 2500
Cn1c(-c2nonc2N)nc2ccccc21 | cAMP-dependent protein kinase catalytic subunit alpha (Homo sapiens, UniProt P17612) | > | 4000
CC(C)Cn1c(-c2nonc2N)nc2ccccc21 | cAMP-dependent protein kinase catalytic subunit alpha (Homo sapiens, UniProt P17612) | = | 1100
COC(=O)c1ccc2c(c1)nc(-c1nonc1N)n2C1CCC1 | cAMP-dependent protein kinase catalytic subunit alpha (Homo sapiens, UniProt P17612) | > | 3300
CC(C)Cn1cc(C#N)nc1-c1nonc1N | cAMP-dependent protein kinase catalytic subunit alpha (Homo sapiens, UniProt P17612) | > | 3300
Nc1nonc1-c1nc2ccccc2n1C1CCC1 | cAMP-dependent protein kinase catalytic subunit alpha (Homo sapiens, UniProt P17612) | = | 540
CC(C)Cn1cc(-c2ccccc2)nc1-c1nonc1N | cAMP-dependent protein kinase catalytic subunit alpha (Homo sapiens, UniProt P17612) | = | 1200
CCn1c(-c2nonc2N)nc2ccccc21 [GW549034X] | cAMP-dependent protein kinase catalytic subunit alpha (Homo sapiens, UniProt P17612) | = | 960
N#Cc1ccc(-n2c(-c3nonc3N)nc3ccccc32)cc1 | cAMP-dependent protein kinase catalytic subunit alpha (Homo sapiens, UniProt P17612) | > | 5000
Nc1nonc1-c1nc2ccccc2n1CC1CCC1 | cAMP-dependent protein kinase catalytic subunit alpha (Homo sapiens, UniProt P17612) | = | 1400
N#Cc1ccccc1-n1c(-c2nonc2N)nc2ccccc21 | cAMP-dependent protein kinase catalytic subunit alpha (Homo sapiens, UniProt P17612) | > | 5000
N#Cc1cccc(-n2c(-c3nonc3N)nc3ccccc32)c1 | cAMP-dependent protein kinase catalytic subunit alpha (Homo sapiens, UniProt P17612) | > | 5000
Nc1nonc1-c1nc2ccccc2n1-c1ccccc1 | cAMP-dependent protein kinase catalytic subunit alpha (Homo sapiens, UniProt P17612) | = | 1300
CC(C)n1c(-c2nonc2N)nc2ccccc21 | cAMP-dependent protein kinase catalytic subunit alpha (Homo sapiens, UniProt P17612) | > | 3300
Nc1nonc1-c1nc2ccccc2n1C1CCCCC1 | cAMP-dependent protein kinase catalytic subunit alpha (Homo sapiens, UniProt P17612) | = | 600
Nc1nonc1-c1nc2ccccc2n1C1CCCC1 | cAMP-dependent protein kinase catalytic subunit alpha (Homo sapiens, UniProt P17612) | = | 720
Nc1nonc1-c1nc2cc(CO)ccc2n1C1CCC1 | cAMP-dependent protein kinase catalytic subunit alpha (Homo sapiens, UniProt P17612) | = | 1500
Cc1cn(CC(C)C)c(-c2nonc2N)n1 | cAMP-dependent protein kinase catalytic subunit alpha (Homo sapiens, UniProt P17612) | > | 3300
COc1ccccc1-n1c(-c2nonc2N)nc2ccccc21 | cAMP-dependent protein kinase catalytic subunit alpha (Homo sapiens, UniProt P17612) | > | 5000
Nc1nonc1-c1nc2ccccc2n1C1CC1 | cAMP-dependent protein kinase catalytic subunit alpha (Homo sapiens, UniProt P17612) | > | 3300
Nc1ccc2c(c1)nc(-c1nonc1N)n2C1CCC1 | cAMP-dependent protein kinase catalytic subunit alpha (Homo sapiens, UniProt P17612) | = | 34
Nc1nonc1-c1nc2cc(O)ccc2n1C1CCC1 | cAMP-dependent protein kinase catalytic subunit alpha (Homo sapiens, UniProt P17612) | = | 2800
CC(=O)Nc1ccc2c(c1)nc(-c1nonc1N)n2C1CCC1 | cAMP-dependent protein kinase catalytic subunit alpha (Homo sapiens, UniProt P17612) | > | 3300
Nc1nonc1-c1nc2ccccc2n1CC1CC1 | cAMP-dependent protein kinase catalytic subunit alpha (Homo sapiens, UniProt P17612) | = | 380
COc1ccc(-n2c(-c3nonc3N)nc3ccccc32)cc1 | cAMP-dependent protein kinase catalytic subunit alpha (Homo sapiens, UniProt P17612) | > | 4000
Cc1ccc2c(c1)nc(-c1nonc1N)n2C1CCC1 | cAMP-dependent protein kinase catalytic subunit alpha (Homo sapiens, UniProt P17612) | = | 2600
